For each of the compounds below, state its LD50 (opened)^24h.
Tested on: D. rerio embryos
Experiment: D. rerio embryotoxicity "photoactivation" assay (ring-closed photoform in darkness, then in situ photoconversion)
Format: in vivo, Danio rerio
Conditions: after 24 h with ring-closed form in dark, in situ illumination 10 min, λ = 570 nm, approx. 20 mW/cm^2; mortality 24 h after illumination; embryos 5 dpf at readout; value ± STD
Starred links: 1 amine or outer side, 2 acyl side, 3 side chain; linkers in the order of their positions; H or OH if unused. Positions of bridges follow the written chain, without caps; N, C: chain ends. Non-standard residues stand in square brackets, D forms with d. Residues, ends and D or L forms follow the SMILES beside them. *: point of attachment. X2 = Cc1sc(C(=O)[C@@H]2CCCN2[*:2])cc1C1=C(c2cc(C(=O)[*:1])sc2C)CCC1; X1 = CCCCN([C@@H](CC(C)C)C(=O)[*:2])[*:1]; Isobutyryl = CC(C)C(=O)*; Orn = NCCC[C@H](N)C(=O)O; Dab = NCC[C@H](N)C(=O)O
Give just the numeric value; µg/mL need not be written.

For the compound Cc1sc2cc1C1=C(CCC1)c1cc(sc1C)C(=O)[C@@H]1CCCN1C(=O)[C@H](CC(C)C)NC(=O)[C@H](CCCN)NC(=O)[C@H](C(C)C)NC(=O)[C@@H]1CCCN1C(=O)[C@@H](Cc1ccccc1)NC(=O)[C@H](CC(C)C)NC(=O)[C@H](CCCN)NC(=O)[C@H](CCCN)NC2=O [Peptide 5] , what LD50 (opened)^24h is on record? 5.3

Given the compound CCCCN1C(=O)[C@@H](Cc2ccccc2)NC(=O)[C@H](CC(C)C)NC(=O)[C@H](CCCN)NC(=O)[C@H]([C@@H](C)CC)NC(=O)c2cc(c(C)s2)C2=C(CCC2)c2cc(sc2C)C(=O)[C@@H]2CCCN2C(=O)[C@H](CC(C)C)NC(=O)[C@H](CCCN)NC(=O)[C@H]([C@@H](C)CC)NC(=O)[C@@H]1CC(C)C [Peptide 11] (I[Orn]L[dF][X1]I[Orn]L; linker N-C via X2) , what is its reported LD50 (opened)^24h? 3.0

Please look up its LD50 (opened)^24h: Cc1sc2cc1C1=C(CCC1)c1cc(sc1C)C(=O)[C@@H]1CCCN1C(=O)[C@H](C(C)C)NC(=O)[C@H](CCCN)NC(=O)[C@H](C(C)C)NC(=O)[C@@H]1CCCN1C(=O)[C@@H](Cc1ccccc1)NC(=O)[C@H](C(C)C)NC(=O)[C@H](CCCN)NC(=O)[C@H](CCNC(=O)C(C)C)NC2=O [Peptide 8] ([Dab](Isobutyryl)[Orn]V[dF]PV[Orn]V; linker N-C via X2) 3.0

I am curious: what LD50 (opened)^24h value has been reported for Cc1sc2cc1C1=C(CCC1)c1cc(sc1C)C(=O)[C@@H]1CCCN1C(=O)[C@H](C(C)C)NC(=O)[C@H](CCCN)NC(=O)[C@H](C(C)C)NC(=O)[C@@H]1CCCN1C(=O)[C@@H](Cc1ccccc1)NC(=O)[C@H](C(C)C)NC(=O)[C@H](CCCN)NC(=O)[C@H]([C@@H](C)O)NC2=O [Peptide 6] (T[Orn]V[dF]PV[Orn]V; linker N-C via X2) ? 6.3
